The measured values listed here are drawn from PubChem BioAssay (NCI).

# growth annotations
Test system: CAKI-1 renal
methodNotes: NCI-60 one-dose screen, 48 h (100 = growth as untreated, 0 = no growth, -100 = all killed)
testConditions: 10 µM unless noted
About 83,000 compounds went through this panel and 20% of them were active in at least one assay; those are over-represented in the sample as a whole.
Express the result in % but write the number alone.

Would you please look over these solved cases?
[
  {
    "molecule": "Oc1c(CN2CCCCC2)ccc2cccnc12",
    "growth / %": 2.08
  },
  {
    "molecule": "N#C/C(=C1C=C/C(=N/O)C(Br)=C/1)c1ccccc1",
    "growth / %": 15.1
  },
  {
    "molecule": "CCOC(=O)C(CNc1ccccc1)C(=O)OCC",
    "growth / %": 94.9
  },
  {
    "molecule": "NC(=O)c1ccccc1OCC(O)CO (configuration not stated)",
    "growth / %": 97.5
  },
  {
    "molecule": "CC12CCC(CC1)C(C)(C)O2",
    "growth / %": 91.4
  },
  {
    "molecule": "Cc1ccc(-c2noc(C)n2)cc1",
    "growth / %": 94.5
  },
  {
    "molecule": "c1ccc2cc(C[n+]3ccn(Cc4ccc5ccccc5n4)c3)ccc2c1",
    "growth / %": 96.2
  },
  {
    "molecule": "O=c1c2ccccc2nc2n1Cc1nc3ccccc3c(=O)n1C2",
    "growth / %": 93.5
  }
]

Which growth value is on record for CNC(=O)c1cccnc1 ?
92.1

Could you share which growth value was measured for Fc1ccccc1Nc1n[nH]c(=S)s1 ?
113

Could you tell me which growth is on file for CC(O)(CC(=O)CC(=O)c1ccccc1)c1ccccc1 (configuration not stated) ?
110

Record request: growth value, item Nc1ccccc1Nc1ccccc1
73.3

Which growth value belongs to C[N+](C)(C)CN1C(=O)c2ccccc2C1=O ?
94.4

Need growth, item Cc1ccc(NCSc2ccc(Cl)cc2)cc1
59.5

What growth value was documented for this molecule, O=C(CCc1ccc(O)cc1)N/N=C/c1cc(Br)ccc1O ?
18.7

// lookup growth for CC(=O)C(/C=N/C(N)=O)=C(/C)O
97.9

Which growth value is on record for Clc1nc(Oc2ccccc2)nc(-c2cn(-c3ccccc3)c3ccccc23)n1 ?
13.4

Please report the recorded growth for CCN(CC)CCCC(C)Nc1ccnc2cc(Oc3ccccc3)ccc12 (configuration not stated) .
68.8

Quick one: growth for CC1(c2ccc3ccccc3c2)CCC(=O)O1 (configuration not stated) ?
100

May I ask what growth has been recorded for O=C1c2ccccc2C(=O)N1/N=C/c1ccc2c(c1)OCO2 ?
110

Record request: growth value, item O=C(CCl)c1ccc2c(c1)Nc1ccccc1S2
98.4

What value of measured growth is listed for O=[N+]([O-])c1ccc2nc3c4ccccc4c4ccccc4c3nc2c1 ?
77.9

I'd like to know its growth. The molecule in question is OCc1ccccn1
101

Returns the measured growth for the input molecule. Input: S=C(S)N1CCCC1
124

Query: growth; subject: Cc1ncsc1CCO
101

Which growth is listed for CC(=O)Nc1cc(S(=O)(=O)O)cc2cc(S(=O)(=O)O)c(N=Nc3ccccc3)c(O)c12 ?
99.6

For the molecule CCN(CC)CCOc1ccc2c(c1)C(=O)c1cc(OCCN(CC)CC)ccc1-2 , what growth is on record?
85.7
